target: Glucocorticoid receptor (Homo sapiens); test: Displacement of [3H]-dexamethasone from cytosolic fraction of human recombinant glucocorticoid receptor by scintillation counting analysis
Sequence (P04150 whole entry): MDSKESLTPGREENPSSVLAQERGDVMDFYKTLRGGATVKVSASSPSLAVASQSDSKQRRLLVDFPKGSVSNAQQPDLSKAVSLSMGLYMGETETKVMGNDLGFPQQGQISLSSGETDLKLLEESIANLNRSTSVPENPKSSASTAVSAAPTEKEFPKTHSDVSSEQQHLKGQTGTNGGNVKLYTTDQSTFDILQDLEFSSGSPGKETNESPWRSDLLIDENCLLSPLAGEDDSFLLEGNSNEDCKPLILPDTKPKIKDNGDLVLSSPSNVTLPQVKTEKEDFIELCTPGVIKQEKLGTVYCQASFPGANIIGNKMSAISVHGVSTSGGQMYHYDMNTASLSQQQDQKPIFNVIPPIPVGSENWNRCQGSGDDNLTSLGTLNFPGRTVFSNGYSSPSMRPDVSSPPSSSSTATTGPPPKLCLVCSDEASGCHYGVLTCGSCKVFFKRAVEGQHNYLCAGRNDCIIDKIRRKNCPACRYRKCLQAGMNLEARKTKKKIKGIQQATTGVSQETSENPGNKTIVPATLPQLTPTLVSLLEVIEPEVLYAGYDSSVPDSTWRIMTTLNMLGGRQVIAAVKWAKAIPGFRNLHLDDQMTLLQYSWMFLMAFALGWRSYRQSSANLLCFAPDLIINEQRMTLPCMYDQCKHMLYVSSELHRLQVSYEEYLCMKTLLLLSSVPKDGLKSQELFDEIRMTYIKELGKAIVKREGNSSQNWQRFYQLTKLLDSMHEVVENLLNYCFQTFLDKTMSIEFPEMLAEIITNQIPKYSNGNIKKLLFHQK
pKi: −log10 of the molar value.
READOUT_LABEL: pKi

1. Cc1cc(-c2cc3c(c4c2CCC4)NC(C)(C)C(=O)C3(C)C)n(C)n1 ... < 6.42
2. CC1(C)Nc2c(cc(-c3cccn4cnnc34)c3c2CCC3)C(C)(C)C1=O ... < 6.42

Field: next compound
Lab request: please report pKi under test system Glucocorticoid receptor (Homo sapiens) for "Cc1cn(C)c(-c2cc3c(c4c2CCC4)NC(C)(C)C(=O)C3(C)C)n1"
< 6.42
